The measurements presented in this section are drawn from patent US20240158446A1.

TEST SYSTEM: GDP-bound KRAS wild-type protein (Homo sapiens, UniProt P01116)
Sequence (P01116 whole entry): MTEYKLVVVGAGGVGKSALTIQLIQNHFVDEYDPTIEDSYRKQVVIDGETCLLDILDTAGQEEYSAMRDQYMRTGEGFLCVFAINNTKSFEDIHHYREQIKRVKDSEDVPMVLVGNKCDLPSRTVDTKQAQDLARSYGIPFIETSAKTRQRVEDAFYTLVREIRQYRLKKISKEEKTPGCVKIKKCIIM
EXPERIMENT DESCRIPTION: Binding to KRAS by surface plasmon resonance (SPR), Single Cycle Kinetics
RUN PARAMETERS: SPR Single Cycle Kinetics, GDP-bound KRAS wild-type protein, 1:1 binding model; read-out: KRAS KD
Where a SMILES comes first, the peptide text is derived from it. Bridges are numbered along the chain shown (N, C = ends). [ ]: non-standard residue; d: D form. The star is where a group is joined. hPhe(3,5-F2-4-CF3) = N[C@@H](CCc1cc(F)c(C(F)(F)F)c(F)c1)C(=O)O; hPhe(3-Cl-4-CF3) = N[C@@H](CCc1ccc(C(F)(F)F)c(Cl)c1)C(=O)O; NPrPhe(4-CF3) = CCCN[C@@H](Cc1ccc(C(F)(F)F)cc1)C(=O)O; Abu(4,4,4-F3) = N[C@@H](CC(F)(F)F)C(=O)O; NMeGly(cPent) = CN[C@H](C(=O)O)C1CCCC1; Nva(3-Et) = CCC(CC)[C@H](N)C(=O)O; NMeD = CN[C@@H](CC(=O)O)C(=O)O; NMeL = CN[C@@H](CC(C)C)C(=O)O; Morpholide = C1CN(*)CCO1; NMeA = CN[C@@H](C)C(=O)O; Ac5c = NC1(C(=O)O)CCCC1; Aze = O=C(O)[C@@H]1CCN1; Sar = CNCC(=O)O
VALUE KIND: pKd
// scale note: pKd = -log10(conc_M); give the bare number

Ask: Quick one: pKd for CCCN1C(=O)CN(C)C(=O)CN(C)C(=O)[C@H](C(CC)CC)NC(=O)[C@H](CC(C)C)N(C)C(=O)C[C@@H](C(=O)N(C)C)N(C)C(=O)[C@H](C2CCCC2)N(C)C(=O)C2(CCCC2)NC(=O)[C@@H]2CCCN2C(=O)[C@H](CCc2cc(F)c(C(F)(F)F)c(F)c2)NC(=O)CN(C)C(=O)[C@@H]1Cc1ccc(C(F)(F)F)cc1 [PP0747] ([NMeL][Nva(3-Et)][Sar][Sar][NPrPhe(4-CF3)][Sar][hPhe(3,5-F2-4-CF3)]P[Ac5c][NMeGly(cPent)][NMeD]-NMe2; lactam N-11) ?
Result: 9.44

Ask: Quick one: pKd for C#CC[C@H]1C(=O)N[C@@H]([C@@H](C)CC)C(=O)N(C)CC(=O)N(C)[C@H]2C/C=C\CCN(C2=O)[C@@H](Cc2ccc(C(F)(F)F)cc2)C(=O)N(C)CC(=O)N[C@@H](CCc2ccc(C(F)(F)F)c(OC)c2)C(=O)N2CC[C@H]2C(=O)NC2(CC(C)(C)C2)C(=O)N(C)[C@@H](C2CCCC2)C(=O)N(C)[C@H](C(=O)N(C)C)CC(=O)N1C [PP2909] ?
Result: 9.00

Ask: Quick one: pKd for CCCN1C(=O)[C@@H]2CCN2C(=O)[C@H](C)N(C)C(=O)[C@H](CC(F)(F)F)NC(=O)[C@H](CC(C)C)N(C)C(=O)C[C@@H](C(=O)N2CCOCC2)N(C)C(=O)[C@H](C2CCCC2)N(C)C(=O)C2(CCCC2)NC(=O)[C@@H]2CCCN2C(=O)[C@H](CCc2ccc(C(F)(F)F)c(Cl)c2)NC(=O)CN(C)C(=O)[C@@H]1Cc1ccc(C(F)(F)F)cc1 [PP0270] ([NMeL][Abu(4,4,4-F3)][NMeA][Aze][NPrPhe(4-CF3)][Sar][hPhe(3-Cl-4-CF3)]P[Ac5c][NMeGly(cPent)][NMeD]-Morpholide; lactam N-11) ?
Result: 9.12

* * *

Please go through the items and note down their Kd.
TEST SYSTEM: GDP-bound KRAS wild-type protein (Homo sapiens, UniProt P01116)
EXPERIMENT DESCRIPTION: Binding to KRAS by surface plasmon resonance (SPR), Single Cycle Kinetics
RUN PARAMETERS: SPR Single Cycle Kinetics, GDP-bound KRAS wild-type protein, 1:1 binding model; read-out: KRAS KD
Where a SMILES comes first, the peptide text is derived from it. Bridges are numbered along the chain shown (N, C = ends). [ ]: non-standard residue; d: D form. The star is where a group is joined. hPhe(3,5-F2-4-CF3) = N[C@@H](CCc1cc(F)c(C(F)(F)F)c(F)c1)C(=O)O; hPhe(3-Cl-4-CF3) = N[C@@H](CCc1ccc(C(F)(F)F)c(Cl)c1)C(=O)O; NPrPhe(4-CF3) = CCCN[C@@H](Cc1ccc(C(F)(F)F)cc1)C(=O)O; NMeGly(cPent) = CN[C@H](C(=O)O)C1CCCC1; Pro(4,4-F2) = O=C(O)[C@@H]1CC(F)(F)CN1; Ac4c(3,3-F2) = NC1(C(=O)O)CC(F)(F)C1; NMeD = CN[C@@H](CC(=O)O)C(=O)O; NMeL = CN[C@@H](CC(C)C)C(=O)O; Morpholide = C1CN(*)CCO1; Ac5c = NC1(C(=O)O)CCCC1; Aze = O=C(O)[C@@H]1CCN1; Sar = CNCC(=O)O
The figure you give is taken to be in pM; do not add the unit.

Ask: I'm curious: which Kd was measured for CCCN1C(=O)CN(C)C(=O)CN(C)C(=O)[C@H]([C@@H](C)CC)NC(=O)[C@H](CC(C)C)N(C)C(=O)C[C@@H](C(=O)N(C)C)N(C)C(=O)[C@H](C2CCCC2)N(C)C(=O)C2(CC(F)(F)C2)NC(=O)[C@@H]2CCCN2C(=O)[C@H](CCc2cc(F)c(C(F)(F)F)c(F)c2)NC(=O)CN(C)C(=O)[C@@H]1Cc1ccc(C(F)(F)F)cc1 [PP0745] ([NMeL]I[Sar][Sar][NPrPhe(4-CF3)][Sar][hPhe(3,5-F2-4-CF3)]P[Ac4c(3,3-F2)][NMeGly(cPent)][NMeD]-NMe2; lactam N-11) tested on GDP-bound KRAS wild-type protein (Homo sapiens, UniProt P01116)?
Result: 29

Ask: I'm curious: which Kd was measured for CCCN1C(=O)CN(C)C(=O)CNC(=O)[C@H]([C@@H](C)CC)NC(=O)[C@H](CC(C)C)N(C)C(=O)C[C@@H](C(=O)N(C)C)NC(=O)[C@H](C2CCCC2)N(C)C(=O)C2(CCCC2)NC(=O)[C@@H]2CC(F)(F)CN2C(=O)[C@H](CCc2ccc(C(F)(F)F)c(Cl)c2)NC(=O)CN(C)C(=O)[C@@H]1Cc1ccc(C(F)(F)F)cc1 [PP0363] ([NMeL]IG[Sar][NPrPhe(4-CF3)][Sar][hPhe(3-Cl-4-CF3)][Pro(4,4-F2)][Ac5c][NMeGly(cPent)]D-NMe2; lactam N-11) tested on GDP-bound KRAS wild-type protein (Homo sapiens, UniProt P01116)?
Result: 1000

Ask: I'm curious: which Kd was measured for CC[C@H](C)[C@@H]1NC(=O)[C@H](CC(C)C)N(C)C(=O)C[C@@H](C(=O)N2CCOCC2)N(C)C(=O)[C@H](C2CCCC2)N(C)C(=O)C2(CCCC2)NC(=O)[C@@H]2CCCN2C(=O)[C@H](CCc2ccc(C(F)(F)F)c(Cl)c2)NC(=O)CN(C)C(=O)[C@H](Cc2ccc(C)cc2)N2CC/C=C\C[C@@H](C2=O)N(C)C(=O)CN(C)C1=O tested on GDP-bound KRAS wild-type protein (Homo sapiens, UniProt P01116)?
Result: 490

Ask: I'm curious: which Kd was measured for CCCN1C(=O)CN(C)C(=O)[C@@H]2CCN2C(=O)[C@H]([C@@H](C)CC)NC(=O)[C@H](CC(C)C)N(C)C(=O)C[C@@H](C(=O)N2CCOCC2)N(C)C(=O)[C@H](C2CCCC2)N(C)C(=O)C2(CCCC2)NC(=O)CN(C)C(=O)[C@H](CCc2ccc(C(F)(F)F)c(Cl)c2)NC(=O)CN(C)C(=O)[C@@H]1Cc1ccc(C(F)(F)F)cc1 [PP0314] ([NMeL]I[Aze][Sar][NPrPhe(4-CF3)][Sar][hPhe(3-Cl-4-CF3)][Sar][Ac5c][NMeGly(cPent)][NMeD]-Morpholide; lactam N-11) tested on GDP-bound KRAS wild-type protein (Homo sapiens, UniProt P01116)?
Result: 1600

Ask: I'm curious: which Kd was measured for CCO[C@@H]1C[C@H]2C(=O)NC3(CC=CC3)C(=O)N(C)[C@@H](C3CCCC3)C(=O)N(C)[C@H](C(=O)N3CCOCC3)CC(=O)N(C)[C@@H](CC(C)C)C(=O)N[C@@H]([C@@H](C)CC)C(=O)N(C)CC(=O)N(C)[C@H]3CCCCCN(C3=O)[C@@H](Cc3ccc(C(F)(F)F)cc3)C(=O)N(C)CC(=O)N[C@@H](CCc3cc(F)c(C(F)(F)F)c(F)c3)C(=O)N2C1 tested on GDP-bound KRAS wild-type protein (Homo sapiens, UniProt P01116)?
Result: 1300

Ask: I'm curious: which Kd was measured for CCO[C@@H]1C[C@H]2C(=O)NC3(CCC3)C(=O)N(C)[C@@H](C3CCCC3)C(=O)N(C)[C@H](C(=O)N(C)C)CC(=O)N(C)[C@@H](C)C(=O)N[C@@H]([C@H](C)CC)C(=O)N(C)CC(=O)N(C)[C@H]3CCCCN(C3=O)[C@@H](Cc3ccc(C(F)(F)F)cc3)C(=O)N(C)CC(=O)N[C@@H](CCc3cc(F)c(C(F)(F)F)c(F)c3)C(=O)N2C1 tested on GDP-bound KRAS wild-type protein (Homo sapiens, UniProt P01116)?
Result: 94

Ask: I'm curious: which Kd was measured for CCC[C@H]1C(=O)N[C@@H]([C@@H](C)CC)C(=O)N(C)CC(=O)N(C)[C@H]2C/C=C\CCN(C2=O)[C@@H](Cc2ccc(C(F)(F)F)cc2)C(=O)N(C)CC(=O)N[C@@H](CCc2ccc(Cl)c(OC)c2)C(=O)N2C[C@H](OCC)C[C@H]2C(=O)NC2(CC(C)(C)C2)C(=O)N(C)[C@@H](C(CC)CC)C(=O)N(C)[C@H](C(=O)N(C)C)CC(=O)N1C tested on GDP-bound KRAS wild-type protein (Homo sapiens, UniProt P01116)?
Result: 1000

Ask: I'm curious: which Kd was measured for CC[C@H](C)[C@@H]1NC(=O)[C@H](CC(C)C)N(C)C(=O)C[C@@H](C(=O)N2CCOCC2)N(C)C(=O)[C@H](C2CCCC2)N(C)C(=O)C2(CCCC2)NC(=O)[C@@H]2CCCN2C(=O)[C@H](CCc2cc(F)c(C(F)(F)F)c(F)c2)NC(=O)CN(C)C(=O)[C@H](Cc2ccc(C(F)(F)F)cc2)N2CCCC[C@@H](C2=O)N(C)C(=O)[C@@H]2CCCN2C1=O tested on GDP-bound KRAS wild-type protein (Homo sapiens, UniProt P01116)?
Result: 360

Ask: I'm curious: which Kd was measured for CCC[C@H]1C(=O)N[C@@H]([C@@H](C)CC)C(=O)N(C2CC2)CC(=O)N(C)[C@H]2C/C=C\CCN(C2=O)[C@@H](Cc2ccc(C)cc2)C(=O)N(C)CC(=O)N[C@@H](CCc2cc(F)c(C(F)(F)F)c(F)c2)C(=O)N2C[C@H](OC(C)C)C[C@H]2C(=O)NC2(CC(C)(C)C2)C(=O)N(C)[C@@H](C2CCCC2)C(=O)N(C)[C@H](C(=O)N(C)C)CC(=O)N1C tested on GDP-bound KRAS wild-type protein (Homo sapiens, UniProt P01116)?
Result: 390

Ask: I'm curious: which Kd was measured for CCO[C@@H]1C[C@H]2C(=O)NC3(CCC3)C(=O)N(C)[C@@H](C3CCCC3)C(=O)N(C)[C@H](C(=O)N(C)CC)CC(=O)N(C)[C@@H](CC3CCC3)C(=O)N[C@@H]([C@@H](C)CC)C(=O)N(C)CC(=O)N(C)[C@H]3C/C=C\CCN(C3=O)[C@@H](Cc3ccc(C(F)(F)F)cc3)C(=O)N(C)CC(=O)N[C@@H](CCc3ccc(C(F)(F)F)c(OC)c3)C(=O)N2C1 tested on GDP-bound KRAS wild-type protein (Homo sapiens, UniProt P01116)?
Result: 120
